Assay: TOX21_p53_BLA_p3_viability: Viability Assessment in the Tox21 HCT-116 p53 Agonism Beta-lactamase Assay, Phase 3 (AID 2283593);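 note: cells exposed to compound for 16 h before reading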
Results filed as inconclusive are left out. The source made the active and inactive calls. Rule for the calls: active = hit-call score of the fitted dose curve at least 0.9, where 1 is the maximum; inconclusive = response in the unintended direction; inactive = score below 0.9.
Entry note: the call must match one of active, inactive

Reference set, count: 6
>  <Compound>
CC(C)(C)OOC(C)(C)C

>  <Cat>
inactive

$$$$
>  <Compound>
CCC(C)(C)c1ccc(O)cc1

>  <Cat>
inactive

$$$$
>  <Compound>
NNC(N)=S

>  <Cat>
inactive

$$$$
>  <Compound>
CCOP(=S)(NC(C)C)Oc1ccccc1C(=O)OC(C)C (stereo not given)

>  <Cat>
inactive

$$$$
>  <Compound>
Cc1ccc2c(c1N)C(=O)c1ccccc1C2=O

>  <Cat>
inactive

$$$$
>  <Compound>
C=C(C)C(=O)OCC1CO1 (stereo not given)

>  <Cat>
inactive

$$$$

IN: Check the results log: what was the call for O=S1(=O)OCC2C(CO1)C1(Cl)C(Cl)=C(Cl)C2(Cl)C1(Cl)Cl (stereo not given) ?
OUT: inactive

IN: Lab log entry: [N-]=[N+]=[N-] — outcome as called in the assay?
OUT: inactive

IN: Answer briefly: the call reported for CCCCN(CCCC)N=O in this assay.
OUT: inactive

IN: Please share the test call associated with CCN(CC)c1ccccc1 .
OUT: inactive

IN: Query: recorded result category for CC1(C)CN=C(NN=C(/C=C/c2ccc(C(F)(F)F)cc2)/C=C/c2ccc(C(F)(F)F)cc2)NC1 in this test
OUT: active

IN: In this assay, the call recorded for CCN(CC)C1CCCCC1 was what?
OUT: inactive

----------
Assay: APR_HepG2_P-H2AX_72hr: Apredica 72-hour HepG2 Assay for H2AX Phosphorylation (AID 2282916);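 note: phospho-histone H2A.x immunostain intensity per cell marking DNA damage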
Conditions: imaging, actives raise or lower the signal
Method: APR_HepG2_72hr is a cell-based, multiplexed-readout assay that uses HepG2, a human liver cell line, with measurements taken at 72 hours after chemical dosing in a 384-well plate.APR_HepG2_P-H2AX_72hr is one of 10 assay component(s) measured or calculated from the APR_HepG2_72hr assay. […] This assay endpoint, APR_HepG2_P-H2AX_72hr, was analyzed with bidirectional fitting relative to DMSO as the negative control and baseline of activity. […]
Calls of active or inactive are those of the source. Rule for the calls: active = hit-call score of the fitted dose curve at least 0.9, where 1 is the maximum; inactive = score below 0.9.
I would appreciate it if you answered using one of these outcomes: Y = active, N = inactive

>  <Compound>
CSC(C)(C)C=NO

>  <Cat>
N

$$$$
>  <Compound>
c1nc[nH]n1

>  <Cat>
N

$$$$
>  <Compound>
CCCCCCCc1ccc(O)cc1

>  <Cat>
N

$$$$
>  <Compound>
CCCN(CCC)c1c([N+](=O)[O-])cc(C(C)C)cc1[N+](=O)[O-]

>  <Cat>
Y

$$$$
>  <Compound>
CC(Cc1ccc(OCC(=O)O)cc1)NCC(O)c1csc(C(F)(F)F)n1 (stereo unspecified)

>  <Cat>
N

$$$$

IN: What was the test verdict on CC(Cl)(Cl)C(=O)O ?
OUT: N

IN: What classification did Cc1ccc(N)cc1N end up with in this test?
OUT: N

IN: In this assay, the call recorded for CCN(CC)c1ccccc1 was what?
OUT: N

IN: Lab log entry: O=C(O)C(Cl)Cl — outcome as called in the assay?
OUT: N

IN: Outcome? CCOC(=O)c1ccccc1C(=O)OCC
OUT: N

IN: What classification did O=[N+]([O-])c1ccccc1 end up with in this test?
OUT: N

----------
Target: Estrogen receptor (Homo sapiens) + Estrogen receptor beta (Homo sapiens) (UniProt P03372+Q92731)
Sequence (P03372 whole entry, looked up, the tested form may be a part): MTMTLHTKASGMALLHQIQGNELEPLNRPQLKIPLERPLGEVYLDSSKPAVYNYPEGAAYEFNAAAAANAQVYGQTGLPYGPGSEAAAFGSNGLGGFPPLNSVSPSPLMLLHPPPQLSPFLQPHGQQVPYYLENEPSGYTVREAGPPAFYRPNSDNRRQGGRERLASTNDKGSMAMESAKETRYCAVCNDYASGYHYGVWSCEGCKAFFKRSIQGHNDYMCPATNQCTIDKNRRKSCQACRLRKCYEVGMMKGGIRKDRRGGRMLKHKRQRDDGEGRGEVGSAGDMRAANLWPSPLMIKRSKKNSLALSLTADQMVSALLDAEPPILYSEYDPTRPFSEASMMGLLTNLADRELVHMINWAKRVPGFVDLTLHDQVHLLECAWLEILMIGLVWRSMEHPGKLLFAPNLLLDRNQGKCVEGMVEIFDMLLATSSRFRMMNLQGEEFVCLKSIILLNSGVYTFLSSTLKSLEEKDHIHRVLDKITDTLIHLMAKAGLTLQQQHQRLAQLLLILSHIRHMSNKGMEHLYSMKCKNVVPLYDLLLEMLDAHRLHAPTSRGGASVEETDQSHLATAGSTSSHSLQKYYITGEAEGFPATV
Sequence (Q92731 whole entry, looked up, the tested form may be a part): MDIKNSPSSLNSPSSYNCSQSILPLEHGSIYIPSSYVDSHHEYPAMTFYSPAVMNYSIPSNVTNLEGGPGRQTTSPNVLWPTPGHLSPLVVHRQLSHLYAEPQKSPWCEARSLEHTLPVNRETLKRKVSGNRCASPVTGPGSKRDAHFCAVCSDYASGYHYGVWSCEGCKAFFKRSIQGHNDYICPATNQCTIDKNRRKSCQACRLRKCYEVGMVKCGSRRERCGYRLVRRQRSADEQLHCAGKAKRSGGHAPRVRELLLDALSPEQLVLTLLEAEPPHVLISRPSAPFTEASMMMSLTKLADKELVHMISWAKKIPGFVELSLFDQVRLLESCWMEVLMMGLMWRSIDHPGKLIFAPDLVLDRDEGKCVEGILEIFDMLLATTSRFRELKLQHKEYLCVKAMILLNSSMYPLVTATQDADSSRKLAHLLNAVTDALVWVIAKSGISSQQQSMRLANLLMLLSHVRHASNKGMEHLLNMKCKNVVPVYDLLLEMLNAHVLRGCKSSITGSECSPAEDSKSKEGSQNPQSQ
Assay: OT_ER_ERaERb_1440: Odyssey Thera (OT) 24-hour HEK293T Protein-Complementation Assay for Estrogen Receptor-alpha/-beta Homodimer (AID 2283356);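 note: heteromer of ER alpha and ER beta binding domains; hits raise reporter fluorescence and both agonists and antagonists give an increase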
Inconclusive results are not listed. Activity calls are given as the source filed them. The calls were made as follows: active = hit-call score of the fitted dose curve at least 0.9, where 1 is the maximum; inconclusive = response in the unintended direction; inactive = score below 0.9.
Just give me one of these, please: T for active, F for inactive

>  <Compound>
CC(Cl)(Cl)C(=O)O

>  <Cat>
F

$$$$

IN: Given O=P(OCC(Br)CBr)(OCC(Br)CBr)OCC(Br)CBr (stereo unspecified) , state the outcome it received in this test.
OUT: F

IN: Query: recorded result category for O=NN1CCCC1 in this test
OUT: F

IN: Test call, this compound: Cc1ccc(N)cc1N
OUT: F

IN: Lab log entry: CCCCc1ccc(O)cc1 — outcome as called in the assay?
OUT: T

----------
Read-out: Monocyte Chemoattractant Protein-1 (MCP1), CCL2 (gene 6347)
Assay: BSK_LPS_MCP1: BioMAP Diversity Plus: LPS Assay for Monocyte Chemoattractant Protein-1 (MCP1) Biomarker Activity (AID 2283081)
Settings: primary human HUVEC with PBMC; actives raise or lower the signal
Calls of active or inactive are those of the source. How the source made its calls: active means hit-call score of the fitted dose curve at least 0.9, where 1 is the maximum; inactive means score below 0.9.
Hello, when you answer, please use one of the following outcomes: active, inactive

>  <Compound>
CCOc1ccc(C(C)(C)COCc2cccc(Oc3ccccc3)c2)cc1

>  <Cat>
inactive

$$$$
>  <Compound>
O=C(O)C1C(C(=O)O)C2(Cl)C(Cl)=C(Cl)C1(Cl)C2(Cl)Cl (stereo not given)

>  <Cat>
inactive

$$$$
>  <Compound>
Cc1cccc(N)c1

>  <Cat>
inactive

$$$$

IN: I'd appreciate the recorded outcome for Nc1cc2c3c(c1)C(c1ccccc1)=N[C@@H](NC(=O)c1cccnc1)C(=O)N3CC2 from this test.
OUT: inactive

IN: Hey, what did the test say about O=P(Oc1ccccc1)(Oc1ccccc1)Oc1ccccc1 ?
OUT: active

----------
Assay: ATG_E_Box_CIS: Attagene CIS-FACTORIAL HepG2 Assay for human Enhancer Box (E-box) (AID 2282936)
Settings: HepG2 E-box cis-reporter transcription, actives raise or lower the signal
Active and inactive are the calls of the source. Rule for the calls: active = hit-call score of the fitted dose curve at least 0.9, where 1 is the maximum; inactive = score below 0.9.
Can you answer with just one of these options? t (active), f (inactive)

The examples below pair each entry with its known result.
>  <Molecule>
[N-]=[N+]=[N-]

>  <Cat>
f

$$$$
>  <Molecule>
COP(=O)(O)OC

>  <Cat>
f

$$$$
>  <Molecule>
CCOP(=S)(OCC)SCn1nnc2ccccc2c1=O

>  <Cat>
f

$$$$
>  <Molecule>
O=C(O)C(F)(F)C(F)(F)C(=O)O

>  <Cat>
f

$$$$

IN: What call does the record list for O=NN1CCCC1 ?
OUT: f

----------
Experiment: CCTE_Shafer_MEA_dev_per_burst_spike_percent: CCTE's Neural Network Formation Assay for Percent of Spikes in a Burst, Shafer Lab (AID 2284032)
Activity calls are given as the source filed them. The calls were made as follows: active = hit-call score of the fitted dose curve at least 0.9, where 1 is the maximum; inactive = score below 0.9.
Outcome measure: outcome

>  <Chemical structure>
OCC(F)(F)OC(F)(F)C(F)(F)OC(F)(F)C(F)(F)OC(F)(F)CO

>  <Outcome measure>
outcome

>  <Result>
inactive

$$$$
>  <Chemical structure>
O=C(O)C(F)(F)OC(F)(F)C(F)(F)OC(F)(F)F

>  <Outcome measure>
outcome

>  <Result>
inactive

$$$$
>  <Chemical structure>
OCC(F)(F)OC(F)(F)C(F)(F)OC(F)(F)CO

>  <Outcome measure>
outcome

>  <Result>
inactive

$$$$

----------
Test: ATG_GAL4_TRANS: Attagene TRANS-FACTORIAL HepG2 Assay for GAL4 (Internal Marker) (AID 2282976)
Conditions: HepG2 Attagene TRANS GAL4 internal marker reporter
Description: ATG_TRANS is a cell-based, multiplexed-readout assay that uses HepG2, a human liver cell line, with measurements taken at 24 hours after chemical dosing in a 24-well plate.ATG_GAL4_TRANS is one of 30 assay component(s) measured or calculated from the ATG_TRANS assay. […] This assay endpoint, ATG_GAL4_TRANS, was analyzed in the positive analysis fitting direction relative to DMSO as the negative control and baseline of activity. […]
Inconclusive results are not listed. Calls of active or inactive are those of the source. The calls were made as follows: active = hit-call score of the fitted dose curve at least 0.9, where 1 is the maximum; inconclusive = response in the unintended direction; inactive = score below 0.9.
Outcome measure: outcome

Solved entries:
>  <Compound>
O=NN1CCCC1

>  <outcome>
inactive

$$$$
>  <Compound>
CCNc1nc(Cl)nc(NC(C)(C)C)n1

>  <outcome>
inactive

$$$$
>  <Compound>
NC(=O)C(F)(F)C(F)(F)F

>  <outcome>
inactive

$$$$
>  <Compound>
Cc1ccc([N+](=O)[O-])cc1C

>  <outcome>
inactive

$$$$
>  <Compound>
COCCOCCO

>  <outcome>
inactive

$$$$
>  <Compound>
CC(Cc1ccc(OCC(=O)O)cc1)NCC(O)c1csc(C(F)(F)F)n1 (stereo not drawn)

>  <outcome>
inactive

$$$$
>  <Compound>
Nc1ccc2ccccc2c1

>  <outcome>
inactive

$$$$
>  <Compound>
N#Cc1ccc(O)cc1

>  <outcome>
inactive

$$$$
>  <Compound>
CC(O)C#N (stereo not drawn)

>  <outcome>
inactive

$$$$
>  <Compound>
ClC(Cl)c1ccccc1

>  <outcome>
inactive

$$$$

# outcome of CCOC(=O)c1ccccc1C(=O)OCC = inactive

Entry under test: CC(C)(C)OOC(C)(C)C . Its outcome was inactive

Data point: O=C(CBr)OCc1ccccc1 ; outcome = inactive

Entry OCC(F)(F)OC(F)(F)C(F)(F)OC(F)(F)C(F)(F)OC(F)(F)F — recorded outcome = inactive

Looking up CC(=O)CCc1ccc2c(c1)OCO2 , I see its outcome listed as inactive

GET /value?item= CCCCc1ccc(O)cc1 &field=outcome returns inactive

The value of outcome measured for the compound CC(C)(C)N(NC(=O)c1ccc(Cl)cc1)C(=O)c1ccccc1 turned out to be inactive

// outcome lookup, compound = C=CC(=O)OCC(F)(F)C(F)F , result: inactive

Entry under test: Cn1[nH]nnc1=S . Its outcome was inactive

Recorded result, CCOP(=S)(OCC)SCS(=O)(=O)CC , outcome: inactive

According to the records, this compound CC(C)Nc1ccc(Nc2ccccc2)cc1 displays outcome of inactive

outcome reading for C/C(=N\NC(=O)Nc1cc(F)cc(F)c1)c1ncccc1C(=O)O : inactive

Data point: c1ccc2c(c1)Nc1ccccc1S2 ; outcome = inactive

Field outcome (entry O=C(O)CF ) reads inactive

compound CCOP(=O)(O)C(N)=O , outcome observed: inactive

The compound listed as FC(F)(F)c1ccc(Cl)cc1 shows outcome equal to inactive

outcome in this record for CC(C)CBr : inactive

Memo: NNC(N)=S , reported outcome: inactive
